test system: MS2 coat protein; experiment: apparent KD of MS2 coat protein; designed switch direction (-1 OFF switch, 1 ON switch): -1; higher = weaker reporter binding; settings: Eterna round: R95; input ligand: microRNA oligo, concentration not stated
So I've got a bunch of sequences here, and I need their apparent KD of MS2 coat protein values.

Field: example entries. Status: answers known.
chain sequence	apparent KD of MS2 coat protein
CUAUGUUAGCAGGAUAUGCCAUUAUUCCUUUUCGCAGAAGGGCUUACAUGAGGAUCACCCAUGUUACAUUUCUU [JR_E6_Sub085] (puzzle: Exclusion 6)	13.3 nM
AGUAGUAGUAUCCGAUCCGACAUGAGGAUCACCCAUGUAGCUAGACGUGCACGCGAUGCUCGUCAGACUACCAGAUG [salish99_TOv1_r3_037] (puzzle: Sensor v3, turn-off variant 1)	100 nM

input: Look at this sequence and give its reported apparent KD of MS2 coat protein. UCGACCGGAGGAUAUCACGUAAAGUACAUGAGGAUCACCCAUGUGUGAUGACUCGAGUCGUGAGAAGGCCGAUAUG [Larausbeer] (puzzle: Exclusion 5)
output: 65.8 nM

----------
system: MS2 coat protein; experiment: apparent KD of MS2 coat protein; designed switch direction (-1 OFF switch, 1 ON switch): 1; higher = weaker reporter binding; details: input ligand: none
So I've got a bunch of sequences here, and I need their apparent KD of MS2 coat protein values.
Give bare numbers, in nM.

Field: example entries. Status: answers known.
chain sequence	metric name	test result
GGAAAGAGGUAAGGAUAUGCAUGGCGGAGACAUGAGGAUCACCCAUGUUGGAGACGAAAUCUAGGGUAGAAGGUACAAGGAAGG [AK SSNG2-V2-11] (Eterna round: R96, puzzle: Same State NG 2)	apparent KD of MS2 coat protein	128
CGACACACGGCAGGAUAUGCUUAGCAAAGCUAAGCAGAAGGGCCUCAUGUCGUGGAAACCUGACAUGAGGAUCACCCAUGUCGG [Omei SS(NG)1 Cv3] (Eterna round: R96, puzzle: Same State NG 1)	apparent KD of MS2 coat protein	37.6
ACAUGAGACUUAGGAUAUGUUGUACCUACAUGUGACAUGAGGAUCACCCAUGUGGUAAGUAUGAGACAGAAGGAAGAGAUAUGU [Equivalence 29 - Jieux - Same State NG 2] (Eterna round: R96, puzzle: Same State NG 2)	apparent KD of MS2 coat protein	54.7
GCUACCAUUGAAGCCUACAUGAGGAUCACCCAUGUAUGUAGGCAGGAUAUCGAUUGCUUUGCGAUCGAGAAGGGCUUAGGUAGC [JL SSNG3 1.30] (Eterna round: R96, puzzle: Same State NG 3)	apparent KD of MS2 coat protein	60.8
GGUAAGAAUUAAGGAUAUCGAGUACAUAUGUUUAACAUGAGGAUCACCCAUGUGGGUUGCGGUAUCGAGAAGGUAAAUUACAAG [Mat - same State NG 2 - JL mod - D62] (Eterna round: R96, puzzle: Same State NG 2)	apparent KD of MS2 coat protein	41.8
GCUAGAAUUAACGCCUACAUGAGGAUCACCCAUGUAUGUAGGCAGGAUAUCGUUUGCAAAGCAAACGAGAAGGGCCUUACUAGC [Mat - Same State NG 3 - JL Mod - D31] (Eterna round: R96, puzzle: Same State NG 3)	apparent KD of MS2 coat protein	46.5
UUUAGAUCGCGAGGAUAUCGCGAGGAUCACCCGUGAGAAGGCGCAGAGCCGAGGAUCACCCGGCUGAUCCUGAGAAGGAGGUCA (Eterna round: R96, puzzle: Same State NG 1)	apparent KD of MS2 coat protein	250
UCGGGCGUACUUGCUGACAUGAGGAUCACCCAUGUGUUUGGGAAGGAUAUGGUUCCGUUUCGGUUCCAGAAGGUCCUGGGUGCU [salish99_SSNG3_r04_314] (Eterna round: R96, puzzle: Same State NG 3)	apparent KD of MS2 coat protein	246

Below: the item to evaluate.
input: Look at this sequence and give its reported apparent KD of MS2 coat protein. GUGGCCCAGGCACAGGAUAUGUUUCUCGUAACAUGAGGAUCACCCAUGUGCCUAUGAGAUUGUUUGCAGAAGGGUGCACGCCACG [JL Atiinbe mod 03] (Eterna round: R96, puzzle: Same State 2)
output: 290

Cited source for all entries: the supplement of paper PMC9170038
